# assay.summary: Cellular viability by CellTiter-Glo in the BK virus assays
# condition.notes: human, CC50, experiment 20-bk-007; Primary; HFF; CellTiter-Glo
readout.name: CC50

Quick one: CC50 of Nc1ccn(C[C@@H](CO)OCP(=O)(O)O)c(=O)n1 [Cidofovir, reference compound] ?
> 150 µM

###

# Tested on: HFF cells
# assay.summary: Cellular viability by CellTiter-Glo in the BK virus assays
# condition.notes: experiment 21-bk2-004; Secondary (Neutralization); HFF; CellTiter-Glo
readout.name: CC50 (µM)
Answers are plain numbers, in µM.

Quick one: CC50 of `C=CC1=C(C)c2cc3[n-]c(cc4[n-]c(cc5nc(cc1n2)C(C)=C5C=C)c(C)c4CCC(=O)O)c(CCC(=O)O)c3C.[Sn+2]` ?
82.7
